Each record here notes measured pIC50.
system: GM-CSF induced STAT5 phosphorylation mediated by the JAK2/JAK2 homdimeric complex; assay: GM-CSF Induced pSTAT5 in Human PBMC; settings: Homo sapiens, PBMC, 20 min, read-out: PBMC_GMCSF_pSTAT5 IC50, human PBMC; GM-CSF 5 ng/mL for 20 minutes; pSTAT5
pIC50: −log10 of the molar value.
readout-name: pIC50

>>> readout_value("CNc1cc(Nc2cccnc2OC)nc2c(C(=O)N[C@H]3C[C@@H]3O)cnn12 [I-438]")
"< 4.30"
>>> readout_value("CNc1cc(Nc2cccn([C@H]3CC[C@](C)(OC)CC3)c2=O)nc2c(C(=O)N[C@H]3CC[C@@H]3OC)cnn12 [I-1105]")
"< 4.30"
>>> readout_value("CNc1cc(Nc2cccnc2OC2CC2)nc2c(C(=O)N[C@H]3C[C@H]3F)cnn12 [I-217]")
"< 4.30"
>>> readout_value("CNc1cc(-c2cn(C(C)C)c3ncc(F)cc23)nc2c(C(=O)N[C@H]3CC[C@@H]3OC)cnn12 [I-1053]")
"< 4.90"
>>> readout_value("CNc1cc(Nc2cccn(-c3ccc(N4CCOCC4)cc3)c2=O)nc2c(C(=O)N[C@H]3C[C@H]3F)cnn12 [I-135]")
"< 5.60"
>>> readout_value("CNc1cc(Nc2cccn(-c3ncc(OC)cc3F)c2=O)nc2c(C(=O)N[C@H]3C[C@H]3F)cnn12 [I-673]")
"< 4.30"
>>> readout_value("CNc1cc(Nc2cccn3ccnc23)nc2c(C(=O)N[C@H]3CC[C@@H]3OC)cnn12 [I-1052]")
"< 4.30"
>>> readout_value("CNc1cc(Nc2cccn([C@@H]3CCC[C@H](OC)C3)c2=O)nc2c(C(=O)NC3CC3)cnn12 [I-621]")
"< 4.30"
>>> readout_value("CNC(=O)c1occc1Nc1cc(NC)n2ncc(C(=O)N[C@@H]3C[C@@H]3F)c2n1 [I-888]")
"< 4.30"
>>> readout_value("CNc1cc(Nc2cccn3ccnc23)nc2c(C(=O)N[C@@H]3C[C@@H]3F)cnn12 [I-892]")
"< 4.90"
>>> readout_value("CNc1cc(Nc2cccn(-c3cc(C)on3)c2=O)nc2c(C(=O)N[C@H]3C[C@H]3F)cnn12 [I-161]")
"< 4.90"
>>> readout_value("CNc1cc(Nc2cccn(C[C@@H]3CCCCO3)c2=O)nc2c(C(=O)N[C@@H]3C[C@@H]3F)cnn12 [I-428]")
"< 4.30"
>>> readout_value("CNc1cc(Nc2cccnc2OC2CC2)nc2c(C(=O)NCC(C)CO)cnn12 (centres unmarked) [I-435]")
"< 4.30"
>>> readout_value("CNc1cc(Nc2cccc3ocnc23)nc2c(C(=O)NCC(C)(C)CO)cnn12 [I-750]")
"< 5.60"
>>> readout_value("CNc1cc(-c2cn(CCN3CCCCC3)c3ncccc23)nc2c(C(=O)N[C@H]3C[C@H]3F)cnn12 [I-585]")
"< 4.90"
>>> readout_value("CNc1cc(Nc2cccn(-c3cccc(C(C)(C)O)n3)c2=O)nc2c(C(=O)NC3CCC3)cnn12 [I-156]")
"< 4.90"
>>> readout_value("CNc1cc(Nc2cc(C)cn(-c3cnn(C)c3)c2=O)nc2c(C(=O)N[C@H]3C[C@H]3F)cnn12 [I-235]")
"< 5.60"
>>> readout_value("CNc1cc(Nc2cccn([C@H]3CCCOC3)c2=O)nc2c(C(=O)N[C@@H]3CC[C@H]3O)cnn12 [I-725]")
"< 5.60"
>>> readout_value("CNc1cc(Nc2cccn([C@H]3CCC[C@@H](OC)C3)c2=O)nc2c(C(=O)N[C@H]3CC[C@@H]3OC)cnn12 [I-996]")
"< 4.30"
>>> readout_value("CNc1cc(-c2cn(CCN3CCOCC3)c3ncccc23)nc2c(C(=O)N[C@H]3CC[C@@H]3OC)cnn12 [I-886]")
"< 6.52"
>>> readout_value("CNc1cc(-c2cn(CCN3CCCCC3)c3ncccc23)nc2c(C(=O)N[C@@H]3CC[C@H]3O)cnn12 [I-837]")
"< 4.90"
>>> readout_value("CNc1cc(Nc2cccn(-c3cnco3)c2=O)nc2c(C(=O)N[C@H]3CC[C@H]3O)cnn12 [I-1017]")
"< 4.90"
>>> readout_value("CNc1cc(Nc2cc(F)cnc2OC)nc2c(C(=O)NCC(C)(C)CO)cnn12 [I-283]")
"< 4.30"
>>> readout_value("CNc1cc(Nc2cc(F)ccc2F)nc2c(C(=O)NC3CC3)cnn12 [I-3]")
"< 4.90"
>>> readout_value("CNc1cc(Nc2cccn([C@H]3CC[C@@H](N4CCOCC4)CC3)c2=O)nc2c(C(=O)NC3CCC3)cnn12 [I-182]")
"< 5.60"
>>> readout_value("CNc1cc(Nc2cc(Cl)cn(-c3ccn(C4CC4)n3)c2=O)nc2c(C(=O)N[C@H]3C[C@H]3F)cnn12 [I-332]")
"< 5.60"
>>> readout_value("CNc1cc(Nc2cccn(C[C@@H]3CCCCO3)c2=O)nc2c(C(=O)NC3CC3)cnn12 [I-413]")
"< 4.30"
>>> readout_value("CNc1cc(Nc2cccc(N3CCOC3=O)n2)nc2c(C(=O)N[C@H]3C[C@H]3F)cnn12 [I-236]")
"< 5.60"
>>> readout_value("CNc1cc(Nc2cc(F)cnc2OC2CC2)nc2c(C(=O)NC3CC3)cnn12 [I-274]")
"< 4.90"
>>> readout_value("CNc1cc(Nc2cc(Cl)cn(-c3cnc(C(=O)N(C)C)cn3)c2=O)nc2c(C(=O)NC3CC3)cnn12 [I-318]")
"< 5.60"
>>> readout_value("CNc1cc(Nc2cccn3ccnc23)nc2c(C(=O)NC3CC3)cnn12 [I-891]")
"< 4.30"
>>> readout_value("CNc1cc(Nc2cccn(-c3ccccn3)c2=O)nc2c(C(=O)N[C@H]3C[C@H]3F)cnn12 [I-681]")
"< 4.90"

* * *

system: GM-CSF induced STAT5 phosphorylation mediated by the JAK2/JAK2 homdimeric complex; assay: GM-CSF Induced pSTAT5 in Human PBMC; conditions: Homo sapiens, PBMC, 20 min, read-out: PBMC_GMCSF_pSTAT5 IC50, human PBMC; GM-CSF 5 ng/mL for 20 minutes; pSTAT5
pIC50: −log10 of the molar value.
readout-name: pIC50

>>> readout_value("CCONC(=O)c1cnn2c(NC)cc(Nc3cccnc3OC)nc12")
"< 4.90"
>>> readout_value("CNc1cc(Nc2cccc([C@@H]3CCCOC3)n2)nc2c(C(=O)N[C@H]3C[C@H]3F)cnn12")
"< 4.30"
>>> readout_value("CNc1cc(Nc2cccn(CCOC)c2=O)nc2c(C(=O)NC3CCC3)cnn12")
"< 4.30"
>>> readout_value("CNc1cc(Nc2cccnc2OC)nc2c(C(=O)N[C@@H]3CCC[C@H]3O)cnn12")
"< 4.30"
>>> readout_value("CNc1cc(Nc2cccn(-c3ccc(OC)cn3)c2=O)nc2c(C(=O)NC3CCC3)cnn12")
"< 4.90"
>>> readout_value("CNc1cc(Nc2cccnc2OC)nc2c(C(=O)NC3CCC3)cnn12")
"< 4.90"
>>> readout_value("CNc1cc(Nc2cccnc2OCCOC)nc2c(C(=O)NC3CCC3)cnn12")
"< 4.90"
>>> readout_value("CNc1cc(Nc2cc(Cl)cn(C3CCOCC3)c2=O)nc2c(C(=O)NCC(C)(C)CO)cnn12")
"< 4.30"
>>> readout_value("CNc1cc(Nc2cccn([C@H]3CCC[C@H](OC)C3)c2=O)nc2c(C(=O)N[C@@H]3C[C@@H]3F)cnn12")
"< 5.60"

* * *

system: IL-12 induced STAT4 phophorylation mediated by Tyk2/JAK2 (heterodimeric complex); experiment: IL-12 Induced pSTAT4 in Human PBMC; type: cell-based; conditions: 1.7 ng/mL IL-12
readout-name: IC50

>>> readout_value("CNc1cc(Nc2cccn(-c3cccnc3)c2=O)nc2c(C(=O)NC3CC3)cnn12")
"100 to 500 nM"
>>> readout_value("CNc1cc(-c2cn(CCN3CCCCC3)c3ncccc23)nc2c(C(=O)N[C@@H]3CC[C@H]3O)cnn12")
"< 100 nM"
>>> readout_value("CNc1cc(Nc2cccn3ccnc23)nc2c(C(=O)NC3CC3)cnn12")
"< 100 nM"
>>> readout_value("CNc1cc(Nc2cc(Cl)cn(C3CCCOC3)c2=O)nc2c(C(=O)N[C@H]3C[C@H]3F)cnn12 (some centres unmarked)")
"< 100 nM"
>>> readout_value("CNc1cc(Nc2cc(Cl)cn(-c3cnn(C4CC4)c3C)c2=O)nc2c(C(=O)N[C@H]3C[C@H]3F)cnn12")
"< 100 nM"
>>> readout_value("CNc1cc(Nc2cccnc2OC(C)C)nc2c(C(=O)NC3CCC3)cnn12")
"100 to 500 nM"
>>> readout_value("CNc1cc(Nc2cccn(-c3cc(C)nn3C)c2=O)nc2c(C(=O)NC3CCC3)cnn12")
"< 100 nM"
>>> readout_value("CNc1cc(-c2cn(C3CC3)c3ncccc23)nc2c(C(=O)N[C@@H]3C[C@@H]3F)cnn12")
"< 100 nM"
>>> readout_value("CNc1cc(Nc2cc(Cl)cn(-c3ccc(C)nn3)c2=O)nc2c(C(=O)N[C@H]3C[C@H]3F)cnn12")
"< 100 nM"
>>> readout_value("CNc1cc(Nc2cc(F)cnc2OCCOC)nc2c(C(=O)N[C@H]3C[C@H]3F)cnn12")
"< 100 nM"
>>> readout_value("CNc1cc(Nc2cccn([C@H]3CCC[C@H]3O)c2=O)nc2c(C(=O)N[C@H]3CC[C@@H]3OC)cnn12")
"< 100 nM"
>>> readout_value("CNc1cc(Nc2cccc([C@H]3CCCOC3)n2)nc2c(C(=O)N[C@@H]3CC[C@H]3O)cnn12")
"< 100 nM"
>>> readout_value("CNc1cc(Nc2cccnc2OC2CC2)nc2c(C(=O)NC3CCC3O)cnn12 (stereo in doubt) [I-366]")
"< 100 nM"
>>> readout_value("CNc1cc(Nc2cc(C)cnc2OCCOC)nc2c(C(=O)NC3CCC3)cnn12")
"100 to 500 nM"
>>> readout_value("CNc1cc(Nc2cc(F)cnc2OC2CC2)nc2c(C(=O)NC3CC3)cnn12")
"< 100 nM"
>>> readout_value("CNc1cc(Nc2cccn([C@H]3CCCOC3)c2=O)nc2c(C(=O)N[C@@H]3CC[C@H]3O)cnn12")
"< 100 nM"
>>> readout_value("CNc1cc(Nc2cccn(C3CCN(CC(F)F)CC3)c2=O)nc2c(C(=O)NC3CCC3)cnn12")
"< 100 nM"

Origin of values: patent US10577373B2
